# IC50 per entry
Molecular target: Somatostatin receptor type 5 (Homo sapiens)
Sequence (P35346 whole entry): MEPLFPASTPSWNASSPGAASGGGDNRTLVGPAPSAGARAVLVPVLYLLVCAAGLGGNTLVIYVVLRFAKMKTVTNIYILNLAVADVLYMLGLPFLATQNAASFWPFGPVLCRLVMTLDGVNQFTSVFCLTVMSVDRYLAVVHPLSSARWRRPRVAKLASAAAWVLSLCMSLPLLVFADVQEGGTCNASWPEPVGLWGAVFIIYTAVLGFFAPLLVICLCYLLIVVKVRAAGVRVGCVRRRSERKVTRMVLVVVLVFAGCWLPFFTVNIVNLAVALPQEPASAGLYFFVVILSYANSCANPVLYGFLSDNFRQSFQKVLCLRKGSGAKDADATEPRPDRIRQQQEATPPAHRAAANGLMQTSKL
measurement-type: IC50

compound=CC(C)[C@@H]1NC(=O)[C@H](CCCCN)N(C)C(=O)[C@@H](Cc2c[nH]c3ccccc23)NC(=O)[C@H](Cc2ccc(O)cc2)NC(=O)[C@H](C)N(C)C(=O)[C@H](Cc2ccccc2)N(C)C1=O test_target="Somatostatin receptor type 5 (Homo sapiens)" value_reported="137 nM"
compound=CC(C)[C@@H]1NC(=O)[C@H](CCCCN)NC(=O)[C@@H](Cc2c[nH]c3ccccc23)N(C)C(=O)[C@H](Cc2ccc(O)cc2)NC(=O)[C@H](C)N(C)C(=O)[C@H](Cc2ccccc2)NC1=O test_target="Somatostatin receptor type 5 (Homo sapiens)" value_reported="126 nM"
compound=CC(C)[C@@H]1NC(=O)[C@H](CCCCN)N(C)C(=O)[C@@H](Cc2c[nH]c3ccccc23)NC(=O)[C@H](Cc2ccc(O)cc2)NC(=O)[C@H](C)N(C)C(=O)[C@H](Cc2ccccc2)NC1=O test_target="Somatostatin receptor type 5 (Homo sapiens)" value_reported="247 nM"
compound=CC(C)[C@@H]1NC(=O)[C@H](CCCCN)N(C)C(=O)[C@@H](Cc2c[nH]c3ccccc23)N(C)C(=O)[C@H](Cc2ccc(O)cc2)NC(=O)[C@H](C)N(C)C(=O)[C@H](Cc2ccccc2)NC1=O test_target="Somatostatin receptor type 5 (Homo sapiens)" value_reported="196 nM"
compound="CC(C)[C@@H]1NC(=O)[C@H](CCCCN)NC(=O)[C@@H](Cc2c[nH]c3ccccc23)NC(=O)[C@H](Cc2ccc(O)cc2)NC(=O)[C@H](C)N(C)C(=O)[C@H](Cc2ccccc2)NC1=O [SEGLITIDE]" test_target="Somatostatin receptor type 5 (Homo sapiens)" value_reported="81 nM"
compound=CC(C)[C@@H]1NC(=O)[C@H](CCCCN)N(C)C(=O)[C@@H](Cc2c[nH]c3ccccc23)N(C)C(=O)[C@H](Cc2ccc(O)cc2)NC(=O)[C@H](C)N(C)C(=O)[C@H](Cc2ccccc2)N(C)C1=O test_target="Somatostatin receptor type 5 (Homo sapiens)" value_reported="263 nM"
